target: PCSK9 (Homo sapiens (Human)); test: PCSK9 Alexa FRET Standard assay (displacement of AlexaFluor647 tagged cyclic peptide Reagent A); assay type: binding; settings: PCSK9 Alexa FRET Standard assay, 0.5 nM PCSK9, 20 nM AF cyclic peptide Reagent A; read-out: IC50
Sequence (Q8NBP7 153-692): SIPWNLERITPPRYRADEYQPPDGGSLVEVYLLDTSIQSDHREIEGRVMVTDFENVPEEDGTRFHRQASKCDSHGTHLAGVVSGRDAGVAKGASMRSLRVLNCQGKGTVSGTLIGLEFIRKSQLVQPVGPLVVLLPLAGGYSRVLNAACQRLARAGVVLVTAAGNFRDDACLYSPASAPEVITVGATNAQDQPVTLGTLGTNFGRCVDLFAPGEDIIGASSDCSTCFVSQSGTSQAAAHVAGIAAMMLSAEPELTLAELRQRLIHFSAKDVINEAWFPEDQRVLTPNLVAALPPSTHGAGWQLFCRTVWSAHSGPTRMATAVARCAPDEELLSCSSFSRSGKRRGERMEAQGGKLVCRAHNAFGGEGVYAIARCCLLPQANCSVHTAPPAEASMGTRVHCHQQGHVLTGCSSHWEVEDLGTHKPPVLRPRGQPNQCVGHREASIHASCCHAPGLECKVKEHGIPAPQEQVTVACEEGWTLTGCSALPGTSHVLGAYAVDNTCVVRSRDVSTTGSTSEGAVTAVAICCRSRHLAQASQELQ
Starred links: 1 amine or outer side, 2 acyl side, 3 side chain; linkers in the order of their positions; H or OH if unused. Positions of bridges follow the written chain, without caps; N, C: chain ends. Non-standard residues stand in square brackets, D forms with d. Residues, ends and D or L forms follow the SMILES beside them. NMeTrp(1-Me) = CN[C@@H](Cc1cn(C)c2ccccc12)C(=O)O; Trp(1-Me) = Cn1cc(C[C@H](N)C(=O)O)c2ccccc21; 2Nal = N[C@@H](Cc1ccc2ccccc2c1)C(=O)O; mXylylene = c1cc(C[*:1])cc(C[*:2])c1; NMeT = CN[C@H](C(=O)O)[C@@H](C)O; dNMeL = CN[C@H](CC(C)C)C(=O)O; Nva = CCC[C@H](N)C(=O)O; Mpa = O=C(O)CCS
value kind: IC50

The examples below pair each entry with its known result.
C[C@@]12CCCN1C(=O)[C@H](Cc1ccc(O)cc1)NC(=O)CN1CCCC[C@H](NC(=O)[C@H](Cc3c[nH]c4ccc(F)cc34)NC(=O)[C@H](Cc3c[nH]c4ccc(F)cc34)NC(=O)CNC(=O)[C@H](CCCCN)NC(=O)CCSCc3cccc(c3)CSC[C@@H](C(N)=O)NC2=O)C1=O [Compound 104] ... 21000 to 50000 nM
CCC[C@@H]1NC(=O)CCSCc2cccc(c2)CSC[C@@H](C(N)=O)NC(=O)[C@@H]2CCCN2C(=O)[C@H](Cc2ccc(OC)cc2)NC(=O)[C@H]([C@@H](C)OC)NC(=O)[C@@H]2CCCN2C(=O)[C@H](Cc2cn(C)c3ccccc23)N(C)C(=O)[C@H](Cc2ccc3ccccc3c2)NC(=O)[C@@H](CC(C)C)N(C)C1=O [Compound 038] ([Mpa][Nva][dNMeL][2Nal][NMeTrp(1-Me)]PT(Me)Y(Me)PC-NH2; linker 1-10 via mXylylene) ... 0.11 to 100 nM
COc1ccc(C[C@@H]2NC(=O)[C@H](Cc3cnc[nH]3)NC(=O)[C@H](CC(=O)O)NC(=O)[C@H](Cc3c[nH]c4ccc(F)cc34)NC(=O)[C@H](Cc3c[nH]c4ccc(F)cc34)NC(=O)[C@@H](C)NC(=O)[C@H](CCCCN)NC(=O)[C@@H](NC(C)=O)CCc3cn(nn3)-c3ccc(cc3)C[C@@H](C(N)=O)NC(=O)[C@]3(C)CCCN3C2=O)cc1 [Compound 371] ... 0.11 to 100 nM

# lookup: PCSK9 (Homo sapiens (Human)) IC50, key = CC(=O)N[C@H]1CCCn2cc(nn2)CCC[C@@H](C(N)=O)NC(=O)[C@]2(C)CCCN2C(=O)[C@H](Cc2ccc(O)cc2)NC(=O)[C@H](Cc2cnc[nH]2)NC(=O)[C@H](CC(=O)O)NC(=O)[C@H](Cc2c[nH]c3ccc(F)cc23)NC(=O)[C@H](Cc2c[nH]c3ccc(F)cc23)NC(=O)CNC(=O)[C@H](C)NC1=O [Compound 333]
1000 to 12100 nM

Give IC50 for CC(=O)N[C@H]1Cc2cn(nn2)-c2ccc(cc2)C[C@@H](C(N)=O)NC(=O)[C@]2(C)CCCN2C(=O)[C@H](Cc2ccc(O)cc2)NC(=O)[C@H](Cc2cnc[nH]2)NC(=O)[C@H](CC(=O)O)NC(=O)[C@H](Cc2c[nH]c3ccc(F)cc23)NC(=O)[C@H](Cc2c[nH]c3ccc(F)cc23)NC(=O)CNC(=O)[C@H](C)NC1=O [Compound 334] tested on PCSK9 (Homo sapiens (Human)).
21000 to 50000 nM

Fetch value of IC50 on PCSK9 (Homo sapiens (Human)) for CCC[C@@H]1NC(=O)CCSCc2cccc(c2)CSC[C@@H](C(N)=O)NC(=O)[C@@H]2CCCN2C(=O)[C@H](Cc2ccc(OC)cc2)NC(=O)[C@H]([C@@H](C)OC)N(C)C(=O)[C@@H]2CCCN2C(=O)[C@H](Cc2cn(C)c3ccccc23)NC(=O)[C@H](Cc2ccc3ccccc3c2)NC(=O)[C@@H](CC(C)C)N(C)C1=O [Compound 046] ([Mpa][Nva][dNMeL][2Nal][Trp(1-Me)]P[NMeT](Me)Y(Me)PC-NH2; linker 1-10 via mXylylene) .
0.11 to 100 nM
